half-life reference
Assay: Half life in human plasma […] by LC/MS/MS analysis
Type: ADME, cell-free

- Test smiles: "CC(C)OC(=O)[C@H](C)N[P@](=O)(OC[C@H]1O[C@@H](n2ccc(=O)[nH]c2=O)[C@](C)(F)[C@@H]1O)Oc1ccccc1"
  half-life: "> 3.85 h"
- Test smiles: "CC(C)OC(=O)[C@H](C)N[P@](=O)(OC[C@H]1O[C@@H](n2ccc(N)nc2=O)[C@](C)(F)[C@@H]1O)Oc1ccccc1"
  half-life: "> 3.85 h"
- Test smiles: "CCCC(=O)Nc1ccn([C@@H]2O[C@H](CO[P@@](=O)(N[C@@H](C)C(=O)OC(C)C)Oc3ccccc3)[C@@H](O)[C@@]2(C)F)c(=O)n1"
  half-life: "> 3.85 h"

Data origin, for the record: ChEMBL document CHEMBL4011639
